- Test system: FMOC25_1 (patient-derived low-grade serous ovarian cancer cells)
- testDescription: drug sensitivity score (DSS3, normalised partial AUC of % inhibition dose-response) (DSS (score)); higher = more sensitive (stronger inhibition of viability); extreme values may be limits of the assay
- experimentalConditions: 72 h; library: FO4B; assay format: 2D, 384-well, CellTiter-Glo
measureName: drug sensitivity score
Write the number on its own, no unit after it.

Example cases with answers are listed next.
compound: S=P(N1CC1)(N1CC1)N1CC1
quantitativeResult: 0.7

compound: Cc1cc(OCc2nnc(SC3CCCC3)n2-c2cccnc2)ccc1-c1ccc(S(C)(=O)=O)cc1
quantitativeResult: 8.9

compound: CNNCc1ccc(C(=O)NC(C)C)cc1
quantitativeResult: 0

query: Item Cc1cc(C(C)Nc2ccccc2)c2nc(N3CCOCC3)cc(=O)n2c1 (centres undefined) has what recorded drug sensitivity score?
result: 1.7

query: Item `N#CC[C@H](C1CCCC1)n1cc(-c2ncnc3[nH]ccc23)cn1` has what recorded drug sensitivity score?
result: 0

query: Item `COc1cc2c(NC3CCN(C(C)C)CC3)nc(C3CCCCC3)nc2cc1OCCCN1CCCC1` has what recorded drug sensitivity score?
result: 0.2

query: Item `Oc1nc(-c2ccc(C(F)(F)F)cc2)nc2c1CSCC2` has what recorded drug sensitivity score?
result: 6.9

query: Item `CN1CC[C@H](c2c(O)cc(O)c3c(=O)cc(-c4ccccc4Cl)oc23)[C@H](O)C1` has what recorded drug sensitivity score?
result: 19.1

query: Item `Cc1nc(=O)c2cc(CN(C)c3ccc(C(=O)N[C@@H](CCC(=O)O)C(=O)O)s3)ccc2[nH]1` has what recorded drug sensitivity score?
result: 0.1

----------
- Tested on: FMOC03 (patient-derived mucinous ovarian cancer cells)
- testDescription: drug sensitivity score (DSS3, normalised partial AUC of % inhibition dose-response) (DSS (score)); higher = more sensitive (stronger inhibition of viability); extreme values may be limits of the assay
- experimentalConditions: 72 h; library: FO5A; assay format: 2D, 384-well, CellTiter-Glo
measureName: drug sensitivity score
Write the number on its own, no unit after it.

Example cases with answers are listed next.
molecule: CNC(=O)c1ccc(-c2cnc3ncc(Cc4ccc5ncccc5c4)n3n2)cc1F
quantitativeResult: 0

molecule: Cc1c(-c2ccc(N3CCc4cccc(C(=O)Nc5nc6ccccc6s5)c4C3)nc2C(=O)O)cnn1CC12CC3CC(CC(C3)C1)C2
quantitativeResult: 12.5

molecule: C[C@@H]1C[C@H]2[C@@H]3CCC4=CC(=O)C=C[C@]4(C)[C@@]3(F)[C@@H](O)C[C@]2(C)[C@@]1(O)C(=O)CO
quantitativeResult: 0

molecule: COc1cc(Nc2c(C#N)cnc3cc(OCCCN4CCN(C)CC4)c(OC)cc23)c(Cl)cc1Cl
quantitativeResult: 9.3

molecule: Cc1nc(C(=O)NCC(=O)O)c(O)c2ccc(Oc3ccccc3)cc12
quantitativeResult: 0

query: Item `CC(C)[C@@H](CS(=O)(=O)C(C)C)N1C(=O)[C@@](C)(CC(=O)O)C[C@H](c2cccc(Cl)c2)[C@H]1c1ccc(Cl)cc1` has what recorded drug sensitivity score?
result: 0

query: Item `NC1(c2ccc(-c3nc4ccn5c(=O)[nH]nc5c4cc3-c3ccccc3)cc2)CCC1` has what recorded drug sensitivity score?
result: 2.5

query: Item Cc1sc2c(c1C)C(c1ccc(Cl)cc1)=N[C@@H](CC(=O)NCCCCNC(=O)COc1cccc3c1C(=O)N(C1CCC(=O)NC1=O)C3=O)c1nnc(C)n1-2 (stereo partly drawn) has what recorded drug sensitivity score?
result: 4.5

query: Item `O=C(CCNC(=O)c1ccc(OC(F)(F)F)cc1)N[C@@H]1CCCc2ccccc21` has what recorded drug sensitivity score?
result: 4.6

query: Item `COc1cc(OC)c(/C=C/S(=O)(=O)Cc2ccc(OC)c(NCC(=O)O)c2)c(OC)c1` has what recorded drug sensitivity score?
result: 18.2

query: Item `O=c1ncn2nc(Sc3ccc(F)cc3F)ccc2c1-c1c(Cl)cccc1Cl` has what recorded drug sensitivity score?
result: 0

query: Item `C[C@H]1O[C@@H](O[C@H]2[C@@H](O)C[C@H](O[C@H]3[C@@H](O)C[C@H](O[C@H]4CC[C@@]5(C)[C@H](CC[C@@H]6[C@@H]5C[C@@H](O)[C@]5(C)[C@@H](C7=CC(=O)OC7)CC[C@]65O)C4)O[C@@H]3C)O[C@@H]2C)C[C@H](O)[C@@H]1O` has what recorded drug sensitivity score?
result: 9.6

query: Item N.N.[Cl][Pt][Cl] [Cisplatin] has what recorded drug sensitivity score?
result: 4

query: Item COc1cc(CCc2cc(NC(=O)c3ccc(N4CC(C)NC(C)C4)cc3)n[nH]2)cc(OC)c1 (stereo not drawn) has what recorded drug sensitivity score?
result: 0

query: Item CN1CCN(C2CCC(n3cc(-c4ccc(Oc5ccccc5)cc4)c4c(N)ncnc43)CC2)CC1 (stereo not drawn) has what recorded drug sensitivity score?
result: 9.1

query: Item `C=CC(=O)Nc1cc(Nc2nccc(-c3cn(C)c4ccccc34)n2)c(OC)cc1N(C)CCN(C)C` has what recorded drug sensitivity score?
result: 11.7

query: Item `COc1cc2c(N3CCN(C(=O)Nc4ccc(OC(C)C)cc4)CC3)ncnc2cc1OCCCN1CCCCC1` has what recorded drug sensitivity score?
result: 0

query: Item `CC(C)Oc1ccc(-c2nn([C@@H](C)c3oc4ccc(F)cc4c(=O)c3-c3cccc(F)c3)c3ncnc(N)c23)cc1F` has what recorded drug sensitivity score?
result: 0

query: Item `COc1cc(Nc2ncc(F)c(Nc3ccc4c(n3)N(COP(=O)(O)O)C(=O)C(C)(C)O4)n2)cc(OC)c1OC` has what recorded drug sensitivity score?
result: 2.3

query: Item `CNC(=O)CN1CCC(Oc2cc3c(Nc4cccc(Cl)c4F)ncnc3cc2OC)CC1` has what recorded drug sensitivity score?
result: 14.7

query: Item `CCc1nc(C(N)=O)c(Nc2ccc(N3CCC(N4CCN(C)CC4)CC3)c(OC)c2)nc1NC1CCOCC1` has what recorded drug sensitivity score?
result: 0.1

query: Item `CCNC(=O)CCC/C=C\C[C@@H]1[C@@H](/C=C/[C@@H](O)CCc2ccccc2)[C@H](O)C[C@@H]1O` has what recorded drug sensitivity score?
result: 0

query: Item `C=CC[C@@H]1/C=C(\C)C[C@H](C)C[C@H](OC)[C@H]2O[C@@](O)(C(=O)C(=O)N3CCCC[C@H]3C(=O)O[C@H](/C(C)=C/[C@@H]3CC[C@@H](O)[C@H](OC)C3)[C@H](C)[C@@H](O)CC1=O)[C@H](C)C[C@@H]2OC` has what recorded drug sensitivity score?
result: 0

----------
- Tested on: FMOC02_1 (patient-derived low-grade serous ovarian cancer cells)
- testDescription: drug sensitivity score (DSS3, normalised partial AUC of % inhibition dose-response) (DSS (score)); higher = more sensitive (stronger inhibition of viability); extreme values may be limits of the assay
- experimentalConditions: 72 h; library: FO5A; assay format: 2D, 384-well, CellTiter-Glo
measureName: drug sensitivity score
Write the number on its own, no unit after it.

substanceSmiles: CCNc1nc(Nc2cc(F)c(C(=O)N3CCOCC3)cc2OC)ncc1C(F)(F)F
measureName: drug sensitivity score
quantitativeResult: 0
//
substanceSmiles: CCN1CCN(c2ccc(Nc3cc(N(C)C(=O)Nc4c(Cl)c(OC)cc(OC)c4Cl)ncn3)cc2)CC1
measureName: drug sensitivity score
quantitativeResult: 0
//
substanceSmiles: CS(=O)(=O)CCNCc1ccc(-c2ccc3ncnc(Nc4ccc(OCc5cccc(F)c5)c(Cl)c4)c3c2)o1
measureName: drug sensitivity score
quantitativeResult: 5.4

query: Field: drug sensitivity score (FMOC02_1). Entry: `CN1CCN(c2ccc(C(=O)Nc3n[nH]c4ccc(Cc5cc(F)cc(F)c5)cc34)c(NC3CCOCC3)c2)CC1`
result: 0.3

query: Field: drug sensitivity score (FMOC02_1). Entry: `COc1cc2/c(=N/c3ccc(Br)cc3F)nc[nH]c2cc1OCC1CCN(C)CC1`
result: 5.6

query: Field: drug sensitivity score (FMOC02_1). Entry: `CNC(=O)c1cccc2cc(Oc3ccnc4cc(OCC5(N)CC5)c(OC)cc34)ccc12`
result: 2.6

query: Field: drug sensitivity score (FMOC02_1). Entry: `NS(=O)(=O)NCCNc1nonc1/C(=N/O)Nc1ccc(F)c(Br)c1`
result: 0

query: Field: drug sensitivity score (FMOC02_1). Entry: `C[C@@H](Oc1cc(-c2cnn(C3CCNCC3)c2)cnc1N)c1c(Cl)ccc(F)c1Cl`
result: 0.9

query: Field: drug sensitivity score (FMOC02_1). Entry: `Cc1nc(C(=O)NCC(=O)O)c(O)c2ccc(Oc3ccccc3)cc12`
result: 0

query: Field: drug sensitivity score (FMOC02_1). Entry: `CC(C)N(CCCNC(=O)Nc1ccc(C(C)(C)C)cc1)C[C@H]1O[C@@H](n2cc(Br)c3c(N)ncnc32)[C@H](O)[C@@H]1O`
result: 1.2

----------
- System: FMOC02_3 (patient-derived low-grade serous ovarian cancer cells)
- testDescription: drug sensitivity score (DSS3, normalised partial AUC of % inhibition dose-response) (DSS (score)); higher = more sensitive (stronger inhibition of viability); extreme values may be limits of the assay
- experimentalConditions: 72 h; library: FO5A; assay format: 2D, 384-well, CellTiter-Glo
Collected drug sensitivity score values appear next to each entry.
Write the number on its own, no unit after it.

molecule: Nc1nc(Nc2ccc3c(c2)CC[C@@H](N2CCCC2)CC3)nn1-c1cc2c(nn1)-c1ccccc1CCC2 [BGB324]
assayedSystem: FMOC02_3
drug sensitivity score: 7.6

molecule: O=C(O)CNC(=O)c1c(O)c2ccccc2n(Cc2ccccc2)c1=O [IOX-2]
assayedSystem: FMOC02_3
drug sensitivity score: 0

molecule: CC[C@@](C)(Nc1ccnc(-c2c[nH]c3ncccc23)n1)C(=O)NCC(F)(F)F [Decernotinib]
assayedSystem: FMOC02_3
drug sensitivity score: 0.4

query: Field: drug sensitivity score (FMOC02_3). Entry: O=c1[nH]c(=O)n([C@H]2C[C@H](O)[C@@H](CO)O2)cc1F [Floxuridine]
result: 2.3

query: Field: drug sensitivity score (FMOC02_3). Entry: Cc1cnc(NC(=O)Nc2cc(Br)c(C)cc2OC[C@@H]2CNCCO2)cn1 [Rabusertib]
result: 0.8

query: Field: drug sensitivity score (FMOC02_3). Entry: CCC/C=C/C=C/C(=O)O[C@H]1/C(=C/C(=O)OC)C[C@H]2C[C@H]([C@@H](C)O)OC(=O)C[C@H](O)C[C@@H]3C[C@H](OC(C)=O)C(C)(C)[C@](O)(C[C@@H]4C/C(=C/C(=O)OC)C[C@H](/C=C/C(C)(C)[C@]1(O)O2)O4)O3 [Bryostatin 1]
result: 4.1

query: Field: drug sensitivity score (FMOC02_3). Entry: CC(=O)Nc1cccc(-n2c(=O)n(C3CC3)c(=O)c3c(Nc4ccc(I)cc4F)n(C)c(=O)c(C)c32)c1 [Trametinib]
result: 14

query: Field: drug sensitivity score (FMOC02_3). Entry: CCc1c(C(=O)C(N)=O)c2c(OCC(=O)O)cccc2n1Cc1ccccc1 [Varespladib]
result: 0

query: Field: drug sensitivity score (FMOC02_3). Entry: Clc1ccc(C(c2ccccc2Cl)C(Cl)Cl)cc1 (stereo unspecified) [Mitotane]
result: 0

query: Field: drug sensitivity score (FMOC02_3). Entry: CNC(=O)c1ccc(N2C(=S)N(c3cnc(C#N)c(C(F)(F)F)c3)C(=O)C23CCC3)cc1F [Apalutamide]
result: 0

query: Field: drug sensitivity score (FMOC02_3). Entry: CON(C)C(=O)N1N=C(c2cc(F)ccc2F)S[C@@]1(CCCN)c1ccccc1 [Filanesib]
result: 12.7

query: Field: drug sensitivity score (FMOC02_3). Entry: O=C(O)c1ccc(O)c2ncccc12 [IOX-1]
result: 0

query: Field: drug sensitivity score (FMOC02_3). Entry: COc1cc2nccc(Oc3ccc(NC(=O)Nc4cc(C)on4)c(Cl)c3)c2cc1OC [Tivozanib]
result: 3.3

query: Field: drug sensitivity score (FMOC02_3). Entry: C[C@H](Nc1ncnc2nc[nH]c12)c1cc2cccc(Cl)c2c(=O)n1-c1ccccc1 [Duvelisib]
result: 0

query: Field: drug sensitivity score (FMOC02_3). Entry: Cc1cn(-c2cc(NC(=O)c3ccc(C)c(Nc4nccc(-c5cccnc5)n4)c3)cc(C(F)(F)F)c2)cn1 [Nilotinib]
result: 0

query: Field: drug sensitivity score (FMOC02_3). Entry: O=C(/C=C\n1cnc(-c2cc(C(F)(F)F)cc(C(F)(F)F)c2)n1)NNc1ccccn1 [Verdinexor]
result: 9.2
